Each entry below carries its reported FL011-lacZ (relative expression).
- Tested on: FLO11
- Assay Comment: PFLO11-lacZ reporter, β-galactosidase activity
- Type: cell-based, S. cerevisiae
- Measurement Conditions: Table 1, strain MY1405 with plasmid MB1339, control pTCN23 = 1.0

Guide cases for FL011-lacZ (relative expression), answers given:
Seq String	FL011-lacZ (relative expression)
QPWYRKLRLAPVYPSD [Clone 5-39-1a, invasion-promoting random peptide expressed in loop of Staphylococcal nuclease scaffold]	17.8
AFSRRGRRAWSWPVSN [5-48, 2, invasion-promoting random peptide expressed in loop of Staphylococcal nuclease scaffold]	12.9

Now let's try a different one.
(Q) I have this sequence here, GRRSRVRWSWPLFKSL [5-28, 3, invasion-promoting random peptide expressed in loop of Staphylococcal nuclease scaffold] , and I need its recorded FL011-lacZ (relative expression).
(A) 18.2

---

- System: FLO11
- Assay Comment: PFLO11-lacZ reporter, β-galactosidase activity
- Format: cell-based, S. cerevisiae
- Measurement Conditions: Table 1, strain MY1405 with plasmid MB1339, control pTCN23 = 1.0
- Text: […]
Everything with FL011-lacZ (relative expression) lower than 6 is condition not met; everything else, including exactly 6, is condition met.

Some entries whose results are on file:
Seq String	Category Label
ELAYKFGRDWARLYFS [Clone 5-75-1, invasion-promoting random peptide expressed in loop of Staphylococcal nuclease scaffold]	condition met
YEAGVILRACLWAVSG [4-17, 1, invasion-promoting random peptide expressed in loop of Staphylococcal nuclease scaffold]	condition met
QRIPLIGGVLFIAWIM [Clone 5-11-3a, invasion-promoting random peptide expressed in loop of Staphylococcal nuclease scaffold]	condition not met

Now for another entry.
(Q) Say whether SGDAVMGFLLKCLGLQ [5-31, 2, invasion-promoting random peptide expressed in loop of Staphylococcal nuclease scaffold] shows FL011-lacZ (relative expression) of 6 or more.
(A) condition met

---

- Test system: FLO11
- Assay Comment: PFLO11-lacZ reporter, β-galactosidase activity
- Format: cell-based, S. cerevisiae
- Measurement Conditions: Table 1, strain MY1405 with plasmid MB1339, control pTCN23 = 1.0
FL011-lacZ (relative expression) values, listed per item
Respond with the number and no other words.

Seq String	FL011-lacZ (relative expression)
EWCEICHRLVWVFCFT [5-34, 3, invasion-promoting random peptide expressed in loop of Staphylococcal nuclease scaffold]	4.1

(Q) What FL011-lacZ (relative expression) appears in the records for this sequence with FLO11? RRWNRLKSWWPCFREQ [Clone 5-18-3b, invasion-promoting random peptide expressed in loop of Staphylococcal nuclease scaffold]
(A) 2.6

(Q) Form: Entry = HGDGLMRYFWSVAMWT [Clone 5-12-1a, invasion-promoting random peptide expressed in loop of Staphylococcal nuclease scaffold] | System = FLO11 | FL011-lacZ (relative expression) = ____
(A) 2.7

(Q) Record MGCVKRLLWGCCMKLT [Clone 5-64-1, invasion-promoting random peptide expressed in loop of Staphylococcal nuclease scaffold] : what is its FL011-lacZ (relative expression) with FLO11?
(A) 2.0

(Q) Tell me reported FL011-lacZ (relative expression) for RCPVAHTLCWEVAGCT [Clone 5-43-3b, invasion-promoting random peptide expressed in loop of Staphylococcal nuclease scaffold] , tested with FLO11.
(A) 9.6

---

Catalogue of FL011-lacZ (relative expression) values
- System: FLO11
- Assay Comment: PFLO11-lacZ reporter, β-galactosidase activity
- Assay type: cell-based, S. cerevisiae
- Measurement Conditions: Table 1, strain MY1405 with plasmid MB1339, control pTCN23 = 1.0

Below, 4 sequences whose answers are already recorded.
Seq String	FL011-lacZ (relative expression)
KRGRRRSHSCPSLMTD [4-1, 1, invasion-promoting random peptide expressed in loop of Staphylococcal nuclease scaffold]	2.2
LDLDRVSVNRCSFMGF [Clone 5-20-1a, invasion-promoting random peptide expressed in loop of Staphylococcal nuclease scaffold]	2.8
GHLWEWSGERWLLRWC [5-23, 1a, invasion-promoting random peptide expressed in loop of Staphylococcal nuclease scaffold]	12.2
WWRPHERFIWAQYYLA [5-14, 3, invasion-promoting random peptide expressed in loop of Staphylococcal nuclease scaffold]	4.9

(Q) Quick check: FL011-lacZ (relative expression) of GSNGCVSVSSSVTSFM [5-49, 3, invasion-promoting random peptide expressed in loop of Staphylococcal nuclease scaffold] ?
(A) 2.5

---

- System: FLO11
- Assay Comment: PFLO11-lacZ reporter, β-galactosidase activity
- Format: cell-based, S. cerevisiae
- Measurement Conditions: Table 1, strain MY1405 with plasmid MB1339, control pTCN23 = 1.0
Test Readout: FL011-lacZ (relative expression)
Lab note: write the figure by itself, no unit.

Past entries and their recorded results:
Substance	Test Readout	Numeric Value
REINWLRFFRLHKVID [5-45, 2, invasion-promoting random peptide expressed in loop of Staphylococcal nuclease scaffold]	FL011-lacZ (relative expression)	6.2
RRWEVLRGDRTARLLS [5-25, 2, invasion-promoting random peptide expressed in loop of Staphylococcal nuclease scaffold]	FL011-lacZ (relative expression)	13.7
GYLRKHRALALGLNLH [4-9, 3, invasion-promoting random peptide expressed in loop of Staphylococcal nuclease scaffold]	FL011-lacZ (relative expression)	11.5
PYGPFLLLTPF*A*L [5-32, 1, invasion-promoting random peptide in Staphylococcal nuclease scaffold; * denotes a stop codon; C. albicans expression plasmid MB2756]	FL011-lacZ (relative expression)	15.1

Now look at this one.
(Q) Recall the recorded FL011-lacZ (relative expression) for ALARWLEIELHPQGLI [5-16, 3, invasion-promoting random peptide expressed in loop of Staphylococcal nuclease scaffold] with FLO11 and state it.
(A) 13.3

---

- Test system: FLO11
- Assay Comment: PFLO11-lacZ reporter, β-galactosidase activity
- Format: cell-based, S. cerevisiae
- Measurement Conditions: Table 2, strain MY1405 with MB1339, control pTCN23 = 1.0
Decision: FLO11-lacZ (relative expression) beneath 0.4 gives satisfied; FLO11-lacZ (relative expression) meeting or exceeding 0.4 gives not satisfied.

Examples with answers:
Seq String	Tested On	Category Label
LGYGEAEREMVTCREH [Clone D4a]	FLO11	satisfied
LTGYAKLLVQLSYFAM [Clone B2c-2]	FLO11	not satisfied
LSYMEGPYWHRSFRAV [Clone G2a]	FLO11	not satisfied
LAYGPERYPRACMRWD [Clone B2a]	FLO11	satisfied
LPYEVSRVCWPRRLGY [Clone D2e]	FLO11	satisfied

Okay, now this sequence:
(Q) Take the sequence LGYMRASREMDGWKLL [Clone D2a] and say whether its FLO11-lacZ (relative expression) is less than 0.4.
(A) satisfied

---

Catalogue of FL011-lacZ (relative expression) values
- System: FLO11
- Assay Comment: PFLO11-lacZ reporter, β-galactosidase activity
- Assay type: cell-based, S. cerevisiae
- Measurement Conditions: Table 1, strain MY1405 with plasmid MB1339, control pTCN23 = 1.0
No unit in the answer, please; the number alone is enough.

Seq String	Tested On	FL011-lacZ (relative expression)
GAGCAPRGCVVWSSLL [4-3, 1, invasion-promoting random peptide expressed in loop of Staphylococcal nuclease scaffold]	FLO11	2.5
KRKVCLLGGRFLVEWL [4-16, 2, invasion-promoting random peptide expressed in loop of Staphylococcal nuclease scaffold]	FLO11	14.8

(Q) Fill in: FL011-lacZ (relative expression) of CGLGGCCCEIFWSFSN [5-30, 3, invasion-promoting random peptide expressed in loop of Staphylococcal nuclease scaffold] is ___
(A) 7.3
